Assay: In vivo pharmacokinetic study
Parameters: species or system SD rats
Conditions: SD (Sprague-Dawley), rat, plasma, iv; male SD rats, i.v. 5 mg/kg, mean ± SD, n 3
readout.name: AUC(0-inf) (ng·h/mL)
Numbers only here, please. The scale is ng·h/mL.

I have this molecule here, CCOC(=O)c1cn(C)c2cc(C#CCCCCCCNC(=O)O[C@H]3[C@H](C)[C@@H](O[C@@H]4O[C@H](C)C[C@H](N(C)C)[C@H]4O)[C@](C)(OC)C[C@@H](C)C(=O)[C@H](C)[C@H]4NC(=O)O[C@]4(C)[C@@H](CC)OC(=O)[C@@H]3C)ccc2c1=O [88h] , and I need its recorded AUC(0-inf).
1790

Quick one: AUC(0-inf) of CC[C@H]1OC(=O)[C@H](C)[C@@H](OC(=O)NCCCCCCC#Cc2ccc3c(=O)c(C(=O)O)cn(C)c3c2)[C@H](C)[C@@H](O[C@@H]2O[C@H](C)C[C@H](N(C)C)[C@H]2O)[C@](C)(OC)C[C@@H](C)C(=O)[C@H](C)[C@H]2NC(=O)O[C@@]21C [MCX-219] ?
7090

###

Test: In vivo pharmacokinetic study
Parameters: species or system SD rats
Conditions: SD (Sprague-Dawley), rat, iv; male SD rats, i.v. 5 mg/kg, plasma
Method: The SD rats were fasted overnight and dosed i.v. at a dose of 5 mg/kg in a solution of DMSO/PEG 400/water (5%/24%/71%). […] The supernatant was diluted and analyzed by LC-MS/MS. […] The quantification of drug concentration in plasma samples was performed using the internal standard method, and the obtained pharmacokinetic parameters were calculated using Phoenix WinNonlin software.
Provide the recorded Cmax for the entries that follow.
Dear colleague, please return just the value in ng/mL, with no unit written.

Which Cmax reading was recorded for the compound CCOC(=O)c1cn(C)c2cc(C#CCCCCCCNC(=O)O[C@H]3[C@H](C)[C@@H](O[C@@H]4O[C@H](C)C[C@H](N(C)C)[C@H]4O)[C@](C)(OC)C[C@@H](C)C(=O)[C@H](C)[C@H]4NC(=O)O[C@]4(C)[C@@H](CC)OC(=O)[C@@H]3C)ccc2c1=O [88h] ?
2650

Which value of Cmax has been reported for CC[C@H]1OC(=O)[C@H](C)[C@@H](OC(=O)NCCCCCCC#Cc2ccc3c(=O)c(C(=O)O)cn(C)c3c2)[C@H](C)[C@@H](O[C@@H]2O[C@H](C)C[C@H](N(C)C)[C@H]2O)[C@](C)(OC)C[C@@H](C)C(=O)[C@H](C)[C@H]2NC(=O)O[C@@]21C in the records?
15000

###

Tested on: S. pneumoniae
Test: MIC, broth microdilution
Format: cell-based, Streptococcus pneumoniae
Details: S. pneumoniae 07P390, c-ermB
Record form. Attribute: MIC. Fill in for each entry.
Your answer should be a plain number; it is taken to be in µg/mL.

// query MIC value for entry CC[C@H]1OC(=O)[C@H](C)[C@@H](OC(=O)NCCOCCC#Cc2ccc3c(c2)c(=O)c(C(=O)O)cn3C2CC2)[C@H](C)[C@@H](O[C@@H]2O[C@H](C)C[C@H](N(C)C)[C@H]2O)[C@](C)(O)C[C@@H](C)CN(C)[C@H](C)[C@H]2OC(=O)O[C@@]21C [116a]
512

Which MIC value belongs to CC[C@H]1OC(=O)[C@H](C)[C@@H](OC(=O)NCCCCCC#Cc2ccc3c(=O)c(C(=O)O)cn(C4CC4)c3c2)[C@H](C)[C@@H](O[C@@H]2O[C@H](C)C[C@H](N(C)C)[C@H]2O)[C@](C)(O)C[C@@H](C)CN(C)[C@H](C)[C@H]2OC(=O)O[C@@]21C [110c] ?
1

What MIC value was documented for this compound, CC[C@H]1OC(=O)[C@H](C)[C@@H](OC(=O)NCCCCCc2ccc3c(c2)c(=O)c(C(N)=O)cn3C2CC2)[C@H](C)[C@@H](O[C@@H]2O[C@H](C)C[C@H](N(C)C)[C@H]2O)[C@](C)(OC)C[C@@H](C)C(=NOC)[C@H](C)[C@H]2OC(=O)O[C@@]21C [59b] ?
64

Using the record for CC[C@H]1OC(=O)[C@H](C)[C@@H](OC(=O)NCCCCCCCCc2ccc3c(c2)c(=O)c(C(N)=O)cn3C2CC2)[C@H](C)[C@@H](O[C@@H]2O[C@H](C)C[C@H](N(C)C)[C@H]2O)[C@](C)(OC)C[C@@H](C)C(=NOC)[C@H](C)[C@H]2OC(=O)O[C@@]21C [62b] , report its MIC.
32

# query: MIC of entry CC[C@H]1OC(=O)[C@H](C)[C@@H](OC(=O)NCCCCCCCCc2ccc3c(=O)c(C(=O)O)cn(C)c3c2)[C@H](C)[C@@H](O[C@@H]2O[C@H](C)C[C@H](N(C)C)[C@H]2O)[C@](C)(OC)C[C@@H](C)C(=O)[C@H](C)[C@H]2NC(=O)O[C@@]21C [90g]
0.03

Value lookup for MIC; key = CC[C@H]1OC(=O)[C@H](C)[C@@H](OC(=O)NCCCCCCC#Cc2ccc3c(c2)c(=O)c(C(=O)O)cn3C2CC2)[C@H](C)[C@@H](O[C@@H]2O[C@H](C)C[C@H](N(C)C)[C@H]2O)[C@](C)(O)C[C@@H](C)CN(C)[C@H](C)[C@H]2OC(=O)O[C@@]21C [111a]
256

Look at this compound and give its reported MIC. CC[C@H]1OC(=O)[C@H](C)[C@@H](OC(=O)NCCCC#Cc2ccc3c(=O)c(C(=O)O)cn(C4CC4)c3c2)[C@H](C)[C@@H](O[C@@H]2O[C@H](C)C[C@H](N(C)C)[C@H]2O)[C@](C)(O)C[C@@H](C)CN(C)[C@H](C)[C@H]2OC(=O)O[C@@]21C [108c]
128

Look at this compound and give its reported MIC. CC[C@H]1OC(=O)[C@H](C)[C@@H](OC(=O)NCCCCCCCCc2ccc3c(=O)c(C(=O)O)cn(C)c3c2)[C@H](C)[C@@H](O[C@@H]2O[C@H](C)C[C@H](N(C)C)[C@H]2O)[C@](C)(O)C[C@@H](C)CN(C)[C@H](C)[C@@H](O)[C@]1(C)O [107g]
4

# input compound: CC[C@H]1OC(=O)[C@H](C)[C@@H](OC(=O)NCCCCCC#Cc2ccc3c(=O)c(C(=O)NO)cn(C4CC4)c3c2)[C@H](C)[C@@H](O[C@@H]2O[C@H](C)C[C@H](N(C)C)[C@H]2O)[C@](C)(OC)C[C@@H](C)C(=NOC)[C@H](C)[C@H]2OC(=O)O[C@@]21C [57e] ; wanted: its MIC
2

So what does the record say about MIC for CC[C@H]1OC(=O)[C@H](C)[C@@H](OC(=O)NCCCCCC#Cc2ccc3c(c2)c(=O)c(C(=O)O)cn3C2CC2)[C@H](C)[C@@H](O[C@@H]2O[C@H](C)C[C@H](N(C)C)[C@H]2O)[C@](C)(O)C[C@@H](C)CN(C)[C@H](C)[C@H]2OC(=O)O[C@@]21C [110a] ?
256

Which MIC value belongs to CC[C@H]1OC(=O)[C@H](C)[C@@H](O[C@H]2C[C@@](C)(OC)[C@@H](O)[C@H](C)O2)[C@H](C)[C@@H](O[C@@H]2O[C@H](C)C[C@H](N(C)C)[C@H]2O)[C@](C)(OC)C[C@@H](C)C(=O)[C@H](C)[C@@H](O)[C@]1(C)O [clarithromycin, reference compound] ?
512

Which MIC is listed for CC[C@H]1OC(=O)[C@H](C)[C@@H](OC(=O)NCCNCCC#Cc2ccc3c(=O)c(C(=O)O)cn(C4CC4)c3c2)[C@H](C)[C@@H](O[C@@H]2O[C@H](C)C[C@H](N(C)C)[C@H]2O)[C@](C)(OC)C[C@@H](C)C(=NOC)[C@H](C)[C@H]2OC(=O)O[C@@]21C [74c] ?
0.5

Name the recorded MIC for CC[C@H]1OC(=O)[C@H](C)[C@@H](OC(=O)NCCCCCCc2ccc3c(c2)c(=O)c(C(N)=O)cn3C2CC2)[C@H](C)[C@@H](O[C@@H]2O[C@H](C)C[C@H](N(C)C)[C@H]2O)[C@](C)(OC)C[C@@H](C)C(=NOC)[C@H](C)[C@H]2OC(=O)O[C@@]21C [60b] .
32

# get_value(readout='MIC', item= CC[C@H]1OC(=O)[C@H](C)[C@@H](OC(=O)NCCOCCC#Cc2ccc3c(=O)c(C(=O)O)cn(C4CC4)c3c2)[C@H](C)[C@@H](O[C@@H]2O[C@H](C)C[C@H](N(C)C)[C@H]2O)[C@](C)(OC)C[C@@H](C)C(=NOC)[C@H](C)[C@H]2OC(=O)O[C@@]21C [70c] )
0.25

Need MIC of CC[C@H]1OC(=O)[C@H](C)[C@@H](OC(=O)NCCCCCCCCCCc2ccc3c(c2)c(=O)c(C(N)=O)cn3C2CC2)[C@H](C)[C@@H](O[C@@H]2O[C@H](C)C[C@H](N(C)C)[C@H]2O)[C@](C)(OC)C[C@@H](C)C(=NOC)[C@H](C)[C@H]2OC(=O)O[C@@]21C [64b] , thanks.
16

For CC[C@H]1OC(=O)[C@H](C)[C@@H](OC(=O)NCCCCCCCCCc2ccc3c(c2)c(=O)c(C(N)=O)cn3C2CC2)[C@H](C)[C@@H](O[C@@H]2O[C@H](C)C[C@H](N(C)C)[C@H]2O)[C@](C)(OC)C[C@@H](C)C(=NOC)[C@H](C)[C@H]2OC(=O)O[C@@]21C [63b] , what is its reported MIC?
16
